Values from paper PMC10397247

# Study target: T1, APC5009-AA
# T1 chain: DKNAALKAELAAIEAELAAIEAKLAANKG
# Test summary: two-hybrid library CCmax;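 also: natural log of median RNA to DNA barcode read ratio; higher means stronger binding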
# Condition label: mean of both orientations
interaction score values by entry
Give only the figure.

DEAAALEAKLAAEKAEAAALEAENAALEG [APC2724-AA] :: -1.67
DENAALEAKLAAIKAELAAIEAELAAIEG [APC4100-AA] :: 0.706
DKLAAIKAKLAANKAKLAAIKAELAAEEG [APC1916-AA] :: -0.00974
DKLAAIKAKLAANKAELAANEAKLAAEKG [APC1987-AA] :: -1.2
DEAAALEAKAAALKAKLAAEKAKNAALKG [APC2375-AA] :: -0.913

Qu. What value of interaction score has been recorded for this entry: DEAAALEAENAALEAKLAAEKAENAALEG [APC2474-AA]
Ans. -1.39

Qu. Reported interaction score, binder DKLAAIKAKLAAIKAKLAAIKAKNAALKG [APC1115-AA] : ____
Ans. -0.451
